experimental system: T1, human APJ receptor (human, UniProt P35414 1-380)
T1 sequence (looked up): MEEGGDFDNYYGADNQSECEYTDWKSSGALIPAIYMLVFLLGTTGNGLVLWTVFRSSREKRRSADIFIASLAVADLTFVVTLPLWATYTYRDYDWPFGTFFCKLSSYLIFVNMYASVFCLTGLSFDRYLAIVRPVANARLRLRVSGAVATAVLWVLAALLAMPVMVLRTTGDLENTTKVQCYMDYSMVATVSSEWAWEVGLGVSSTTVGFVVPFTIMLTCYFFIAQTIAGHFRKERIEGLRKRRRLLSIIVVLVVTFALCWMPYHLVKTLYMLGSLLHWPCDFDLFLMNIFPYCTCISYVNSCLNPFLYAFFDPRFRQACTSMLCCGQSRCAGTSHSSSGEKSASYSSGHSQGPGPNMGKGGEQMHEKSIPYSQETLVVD
assay remarks: cell-based or functional assay
metric name: EC50 Human APJ Receptor (nM)

binder: XXXXXXXQRPRLSHKGPXPF ({TDA}[AC4Abu][Aeea][Aeea][Aeea][Aeea][Aeea][Aeea]QRP[NMeArg]LSHKGP[Nle]P[4-Cl-F]{COOH}) [SEQ ID NO: 398]
metric name: EC50 Human APJ Receptor
unit descriptor: nM
assay value: 0.0573
